- experiment.summary: yeast display, Sf9 membrane polyspecificity reagent, FACS + sequencing; frameworks hold sequencing errors

sequence.content: QVQLVESGGGLVQAGGSLRLSCAASGGTFGSYAMGWYRQAPGKDRELVAAITGSGGRTYYADTVKGRFTISRDNAKNTVYLQMKSLKPEDTAVYYCNATRGIGTPYYYWGQGTQVTVSS
polyreactivity (PSR sort gate): high polyreactivity
//
sequence.content: QVQLVESGGGLVQAGGSLRLSCAASGITFVHYAMGWYRQAPGKERELVAAISSGGGSTYYADSVKGRFTISRDNAKNTVYLQMNSLKPGVTAVYYCAAYVLPYGEYDYWGQGTQVTVSS
polyreactivity (PSR sort gate): low polyreactivity
//
sequence.content: QVQLVESGGGLVQAGGSLRLSCAASVSTFPGYAMGWYRQAPGKERELVAAISTSGGRTYYADSVKGRFTISRDNAKNTVYLQMNSLKPEDTAVYYCAARDTRSPYSGTQVEYWGQGTQVTVSS
polyreactivity (PSR sort gate): low polyreactivity
//
sequence.content: QVQLVESCGGLVQAGGSLRLSCAASGLTYRYYAMGWYRKAPGKERELVAAITSSGTSTYYADSVKGRFTISRDNAKNTVSLQMNSLKAEDTAVSYCAVRQSQKYGLFYYGGQGTQVTVSS
polyreactivity (PSR sort gate): high polyreactivity
//
sequence.content: QVQLVESGGGLVQAGGSLRLSCAASGLTFHSNDMGRYRQAPWKETEFVAAITSGGNTYYADSVKGRFTISRDNAKNTVYLPMNSLKPEDTAVYYCNADYQDEEDDYWGQGTQVTVSS
polyreactivity (PSR sort gate): low polyreactivity
//
sequence.content: QVQLVESGGGLVQAGGSLRLICPASGRIFRYYAMGWYRQARGKERELVAGITTGGGSTYYADSVKGRFTISRDNAKNTVFLQMNSLKPEDTAVYYCAARYYTTYYCGQGTQVTVSS
polyreactivity (PSR sort gate): high polyreactivity
//
sequence.content: QVQLVESGGGLFQAGGSLRLSCAASGSTFDTYAMGWYRQAPGKERELVAAISYRGGNTYYADSVKGRFTISRDNAKNTVYLQMNSLKPEDTAVYYCNAGVSIGRSRRYDYWGQGTQVTVSS
polyreactivity (PSR sort gate): low polyreactivity
//
sequence.content: QVQLVESGGGLVQAGGSLRLSCAASGSILASYAMGWYRQAPGKERELVAAIRTSGDRTYYADSVKGRFTISRDNAKNTVYLQMNSLKPEDTAVYYCAATYRYRPYSYYQYYSWGQGTQVTVSS
polyreactivity (PSR sort gate): high polyreactivity
//
sequence.content: QVQLVESGGGLVQAGGSLSLSCAASGRIFNRNAMGWYRQAPGKEREFVAAISYSSGSTYYADSVKGRFTISRDNAKNTVYLQMNSLKPEDTAVYYCAAKVYNSRRNGYFGWTWGGYDYWGQGTQVTVSS
polyreactivity (PSR sort gate): high polyreactivity
//
sequence.content: QVQLVESGGGLVQAGGSLRLSCAASGLTFYYYAMGWYRQAPGKERELVARISSGTSTYYADSVKGRFTISRDNAKNTVYLQMNSLKPEDTAVYFCNARRKLGSTHGPWGGLVYWGQGTQVTVSS
polyreactivity (PSR sort gate): low polyreactivity
//
sequence.content: QVQLVESGGGLVQAGGSLRLSCAASGSTFQYYAMGWYRQAPGKERELVATISTSGGRTYYADSVKGRFTISRDNAKNTVYLQMNSLKPEDTAVYYCAKRRYSTYYWTFDYWGQGTQVTVSS
polyreactivity (PSR sort gate): high polyreactivity
//
sequence.content: QVQLVESGGGLVQAGGSLRLSCAASGSIFYANAMGWYRQAPGKERELVAAISRSGGRTYYADSVKGRFTISRDNSKNTVYLQMNSLKPEDTAVYYCAADTGRYRDSNYWGQGTQVTVSS
polyreactivity (PSR sort gate): high polyreactivity
//
sequence.content: QDQLVESGGGLVQAGGSLRLSCAASGLIFIDYAMGWYRQAPGKERELVAAITRGGARTYYADSVKGRFTISRDNAKNTVYLQMNSLNPEDTAVYYCAADRPGSRYIDVDYWGQGTQVTVSS
polyreactivity (PSR sort gate): high polyreactivity
//
sequence.content: QVQLVESGGGLVQAGGSLRLSCAASGIIFGKYDMGWYRQAPGKERELVAAITSGTSTNYADSVKGRFTISRDNAKNTVYLQMNSLKPEDTAVYYCAADVYLYYPYFGHRRYNYWGQGTQVTVSS
polyreactivity (PSR sort gate): high polyreactivity
//
sequence.content: QVQLVESGGGLVQAGGSLRLSCADYGYIFVGNAMGCYRQAPGKDRELVAAINSGGSTNYADSVKGRFTISRDNEKNTVYLQMNSLKPEDTAVYYCNAEAPRYNYGRMDYLGQGTQVTVSS
polyreactivity (PSR sort gate): low polyreactivity
//
sequence.content: QVQLVESGGGLVQAGGSLRLSCAASGFIFPLYTMGWYRQAPGKEREVVAAISWIGGRTYYADSVKGRFTISRDFAKNTVYLQMISLKPEDTAVYFCGKDPSGGGYGYDYWGQGTQVTVTS
polyreactivity (PSR sort gate): low polyreactivity
//
sequence.content: QVQLVESGGGLVQAGGSLRLSCAASGNIFYYYAMGWYRQAPGKERELVADITSGGDTDYADSVKGRFTISRDNAKNTVYLQMNSLKPEDTAVYYCNAEYYFHVTYDYWGQGTQVTVSS
polyreactivity (PSR sort gate): low polyreactivity
//
sequence.content: QVQLVESGGGLVQAGGSLRLRCAASGSIFYRNPMGWYRQAPGKESELVAAITSRGGRTYYADSVKGRFTISRDNAKNTVYLQMNSLKPEDTAVYYCNKRDVYSTSDYDYWGQGTQVTVSS
polyreactivity (PSR sort gate): high polyreactivity
//
sequence.content: QVQLVESGGGLVQAGGSLRLSCAASGSIFVRNAMGWYRQAPGKERELVAADSVKGRFTISRDNAKNTVYLQMNSLKPEDTAVYYCNKDYIIRRGPIVYYGFDYWGQGTQVTVSS
polyreactivity (PSR sort gate): low polyreactivity
//
sequence.content: QVQLVESGGGLVQAGGSRRIICAASGGTFYYYAMGWYRQAPGKERELVAAITWSGASTRYADSVKGRFTISRDNAKNTVYLQMNSLKPEDTAVYYCAARRVRPLVTYGYWGQGTQLTVSS
polyreactivity (PSR sort gate): high polyreactivity
//
sequence.content: QVQLVESGGGLVQAGGSLRLSCAASVSIFEWYAMGRYRQAHGKERELVAAINSGGSTYYADSVKGRFTISRDNAKNTVYLQMNSLKPEDTAVYYCAAGTQAHAYVVRPIEMDYWGQGTQVTVSS
polyreactivity (PSR sort gate): low polyreactivity
